// provenance: PubChem BioAssay (NCI)

# System: MCF7 breast
# Experimental details: NCI tumour cell line growth inhibition, 48 h
Endpoint: TGI

GET /values?readout=TGI&system=MCF7 breast&item= CSc1ncc2c(n1)-c1ccccc1OC2 > 100 µM

And then CN1C(=O)C23CCCC2CC1(c1ccccc1)S3 (stereo not drawn) , what is it? > 100 µM

And then COC(=O)c1ccccc1C1CN=NC12Cc1ccc3c(c1C2=O)CCC3 (stereo not drawn) , what is it? > 100 µM

###

# System: MDA-MB-231 breast
# Experimental details: NCI tumour cell line growth inhibition, 48 h
The entries below come with measured TGI values attached.

Example cases with answers are listed next.
Compound	Tgt	Endpoint	Result
C(=N\Nc1ccc2ccccc2n1)/c1ccccn1	MDA-MB-231 breast	TGI	> 100 µM
CCOC(=O)N1CCC2(CC1)C[C@@](C(C)=O)(c1ccccc1)C(C)O2 (some centres not stated)	MDA-MB-231 breast	TGI	> 100 µM
C=C1CCOC2(C(O)C(C)(O)CO)NC(=O)C1(O)NC2=O (configuration not stated)	MDA-MB-231 breast	TGI	> 100 µM
CSc1nc2c(c(=O)n1C)C(c1ccccc1)C1=C(N2)/C(=C/c2ccccc2)CCC1 (configuration not stated)	MDA-MB-231 breast	TGI	> 100 µM
COc1cc(C2NC(=O)C(C#N)=C(Nc3cccc(C)c3)S2)ccc1O (configuration not stated)	MDA-MB-231 breast	TGI	> 100 µM
COC(=O)c1c(O)ccc2c1c1c(n2Cc2cccc(C)c2)C(=O)c2ccccc2C1	MDA-MB-231 breast	TGI	> 75 µM
C/C(=N\NC(N)=S)c1nc2ncccc2[nH]1	MDA-MB-231 breast	TGI	> 100 µM
COc1ccc2[nH]c3c(c2c1)CC(=O)N1CCC[C@H](C1)CC31OCCCO1	MDA-MB-231 breast	TGI	> 100 µM
CCN(CC)CCC1CCCCN1CC(=O)N1c2cc(Cl)ccc2NC(=O)CC1C (configuration not stated)	MDA-MB-231 breast	TGI	> 100 µM
COC(=O)c1cc(-c2ccc(S(C)(=O)=O)cc2)[nH]c1N/N=C/c1c(Cl)cccc1Cl	MDA-MB-231 breast	TGI	> 100 µM

Look at this compound and give its reported TGI. COc1cc(/C=C/C(=N\NC(N)=S)c2sc(NNC(C)=O)nc2C)ccc1O > 100 µM

And then C(=C/c1nnnn1-c1ccccc1)/Nc1ccccc1 , what is it? > 100 µM

And then COc1ccc([I+]c2ccc(OC)cc2)cc1 , what is it? > 100 µM

And then COc1ccc(-c2cc(-c3ccc(Nc4ccnc5cc(Cl)ccc45)cc3)[nH]c(=O)c2C#N)cc1 , what is it? > 100 µM

And then CN(C)CCCn1c(Cn2nc3ccccc3n2)nc2cc(C(F)(F)F)ccc21 , what is it? > 100 µM

And then COc1ccc2c(c1)/C(=N/OC(C)=O)c1c-2c(OC)nc2ccccc12 , what is it? > 100 µM

And then CN(CCCCCl)P(=O)(OCc1ccc([N+](=O)[O-])o1)OCC1OC(n2cc([N+](=O)[O-])c(=O)[nH]c2=O)CC1O (configuration not stated) , what is it? > 100 µM

And then O=C1CC(c2ccccc2)n2c(nc3ccccc32)N1 (configuration not stated) , what is it? > 100 µM

And then O=c1[nH]c(=O)n(C2CC(O)C(CO)O2)cc1Br (configuration not stated) , what is it? > 100 µM

And then CSc1nc(SC)c2c(C)cn(COCCOC(=O)c3ccccc3)c2n1 , what is it? > 100 µM

And then CNC(=O)CNC(=O)N(C[C@@H]1CCCN1C(=O)[C@H](CC(C)C)NC(=O)OC(C)(C)C)C(C)C , what is it? > 100 µM

And then O=C(O)c1nn(-c2ccccc2)nc1-c1nn(-c2ccccc2)nc1C(=O)O , what is it? > 100 µM

###

The entries below come with measured TGI values attached.
# Tested on: BT-549 breast
# Experimental details: NCI tumour cell line growth inhibition, 48 h

Example cases with answers are listed next.
Compound	Result
COc1cc(C2NC(=O)C(C#N)=C(Nc3cccc(C)c3)S2)ccc1O (centres undefined)	> 100 µM
Cn1c(I)c(C#C[Si](C)(C)C)c(=O)[nH]c1=O	9.21 µM
COc1cc(S(=O)(=O)Nc2ccc(-c3csc(N4C(=O)CSC4c4ccccc4O)n3)cc2)ccc1Cl (centres undefined)	> 100 µM

Next:
Look at this compound and give its reported TGI. Cc1cc(C)c2c(n1)S(=O)(=O)N(CCCN1CCN(c3cccc(Cl)c3)CC1)/C(=C(\O)c1ccc(Br)cc1)C2=O > 100 µM

###

# System: A549 NSCLC
# Experimental details: NCI tumour cell line growth inhibition, 48 h; in the data active = GI50 below about 0.43 µM; inactive = the rest
Parameter call: string, one of active, inactive

Below, 5 molecules whose answers are already recorded.
Molecule	Class label
O=C(Oc1c(Cl)cc(Cl)cc1Cl)c1ccccc1Nc1ccnc(C(F)(F)F)c1	inactive
CC/C=C\C[C@H]1C/C=C2/C(=O)C(Cl)=C[C@@H]2C/C=C\CCCC(=O)O1	inactive
CC(C)(C)[Si](C)(C)OC1[C@@H](COC(=O)NC(=O)CCl)O[C@@H](n2cnc3c(N)ncnc32)[C@H]1O[Si](C)(C)C(C)(C)C (stereo partly specified)	inactive
C[C@]12CCC(=O)C[C@@H]1CC[C@@H]1[C@@H]2CC[C@]2(C)[C@@H](OC(=O)N(CCCl)N=O)CC[C@@H]12	active
COc1ccc2c(c1)-c1c(c3cc(OC)ccc3n(CCN(C)C)c1=O)C2=O	active

Record request — test call for C=C(C)C(=O)Nc1ccc(-c2c(-c3ccc(Oc4nccc(C)n4)c(F)c3)c3c(N)ncnc3n2C)cc1 inactive

And then Cn1c(I)c(C#C[Si](C)(C)C)c(=O)[nH]c1=O , what is it? inactive

###

# Test system: TK-10 renal
# Experimental details: NCI tumour cell line growth inhibition, 48 h
Endpoint: TGI

Molecule	Tgt	TGI
O=c1[nH]c(=O)n(C2CC(O)C(CO)O2)cc1Br (centres undefined)	TK-10 renal	> 100 µM
CCN1C(=O)N(CC)C2C1N=C(SC)N2/N=C/C=C/c1ccccc1OC (centres undefined)	TK-10 renal	> 58.7 µM
CSc1nc(NCc2ccccc2)c2cnn(COCCO)c2n1	TK-10 renal	> 100 µM
COc1ccc(Nc2nc(N)c(C(=O)c3ccc(Cl)cc3)s2)cc1	TK-10 renal	> 46.3 µM
CCCCCCCCCCCCCS(=O)(=O)NCC(N)=O	TK-10 renal	> 100 µM

GET /values?readout=TGI&system=TK-10 renal&item= NC(=O)c1ncn(C2OC(CO)C(O)C2O)c1O (centres undefined) > 100 µM

And then COC(=O)C(CCC1(C)OCCO1)=[N+]=[N-] , what is it? > 100 µM

And then CCCN(CCC)C(=O)c1c(N2CCN(C)CC2)c2cccnc2n2c(C)cnc12 , what is it? > 100 µM

And then COC(=O)c1c2c(cc3c1CC1(Cc4ccccc4C1)C3)CCC2 , what is it? > 100 µM

And then CCN(CC)C(=S)SS(C)(=O)=O , what is it? 32.2 µM

And then O=C(CI)Nc1ccc(Br)cc1 , what is it? 3.63 µM

And then CN1C(=O)C23CCCC2CC1(c1ccccc1)S3 (centres undefined) , what is it? > 100 µM

And then Cc1[nH]c2cc([N+](=O)[O-])ccc2c1[N+](=O)[O-] , what is it? 75.8 µM

And then C=C(C)CCC1C=[N+]([O-])OC(C)(C)C1(C)C (centres undefined) , what is it? > 100 µM

And then CCOC(=O)c1nc2cc(Cl)ccc2[nH]c1=O , what is it? > 100 µM

And then CC/C=C\C[C@H]1C/C=C2/C(=O)C(Cl)=C[C@@H]2C/C=C\CCCC(=O)O1 , what is it? 1.41 µM

And then COc1ccc2c3/c(=C\c4ccc(N(C)C)cc4)c4ccccc4n3[n+](C)c2c1 , what is it? 1.32 µM

And then COc1cnccc1Nc1nc(-c2nn(Cc3c(F)cc(OCCO)cc3F)c3ccccc23)ncc1OC , what is it? 27.7 µM

And then O=c1c2c3c(sc2nc2n1NC=NN2)CCCC3 , what is it? > 56 µM

###

The entries below come with measured TGI values attached.
# Tested on: IGROV1 ovarian
# Experimental details: NCI tumour cell line growth inhibition, 48 h

Example cases with answers are listed next.
Compound	Result
COc1cccc2c1C(=O)c1c(O)c3c(c(O)c1C2=O)C[C@@](O)(C(=O)CO)CC3OC1CC(NCCOCC(OC(C)=O)OC(C)=O)C(O)C(C)O1 (some centres undefined)	3.04 µM
O=C(C(=CN1CCN(C(=O)c2ccco2)C1=S)C(=O)c1ccccc1)c1ccccc1	40.9 µM
CC12CCc3ccccc3C1=NNC(=O)C2 (centres undefined)	> 100 µM

Next:
Look at this compound and give its reported TGI. FC(F)(F)c1cccc(-c2[nH]ncc2-c2nnnn2-c2ccccc2)c1 15.4 µM
